target.system: Neu5Ac(a2-3)Gal(b1-3)GalNAc
assay.procedure: glycan array binding signal (z-score within array); higher = stronger binding
study.conditions: glycan notation: IUPAC condensed, linker removed
The sample as a whole holds a higher share of the strongest signals than the screen did.
observable: glycan array binding signal (z-score)
Note: the reply should be a number with no unit written.

# annotated cases, reported glycan array binding signal (z-score) shown
Tell me the measured glycan array binding signal (z-score) of CBM40 CPF071 (Clostridium perfringens) (protein) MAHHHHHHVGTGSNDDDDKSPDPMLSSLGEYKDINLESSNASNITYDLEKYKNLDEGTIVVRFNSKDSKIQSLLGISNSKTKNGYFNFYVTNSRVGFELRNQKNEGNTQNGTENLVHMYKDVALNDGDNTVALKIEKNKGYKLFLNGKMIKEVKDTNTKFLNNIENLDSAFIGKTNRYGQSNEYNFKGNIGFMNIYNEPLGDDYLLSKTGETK , please.
-0.019

Recorded glycan array binding signal (z-score) of RBMC1 (Vibrio cholerae) (protein) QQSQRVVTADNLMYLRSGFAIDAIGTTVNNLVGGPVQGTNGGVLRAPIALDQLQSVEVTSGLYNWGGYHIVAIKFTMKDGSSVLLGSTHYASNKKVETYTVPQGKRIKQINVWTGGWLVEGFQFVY , please.
-0.226

More entries:
So what's the measured glycan array binding signal (z-score) for this one? AFL (Aspergillus fumigatus), Q4WW81 (protein) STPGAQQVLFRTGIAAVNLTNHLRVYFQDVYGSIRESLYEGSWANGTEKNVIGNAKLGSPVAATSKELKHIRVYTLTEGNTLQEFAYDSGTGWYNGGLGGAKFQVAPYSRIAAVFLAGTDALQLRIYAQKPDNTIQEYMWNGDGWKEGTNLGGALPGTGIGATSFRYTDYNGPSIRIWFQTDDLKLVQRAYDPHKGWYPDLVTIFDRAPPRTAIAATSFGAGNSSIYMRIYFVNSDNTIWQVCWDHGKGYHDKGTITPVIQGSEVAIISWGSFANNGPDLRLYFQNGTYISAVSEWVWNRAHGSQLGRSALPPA
-0.385
